test.method.notes: PDE10a perfused brain permeability study: plasma concentrations at 30 and 120 min, brain concentration at 120 min, brain/plasma ratio
experimental.setup: male, Sprague-Dawley, rat, brain
Where a name gives a salt, the structure may show the parent alone.
Item-by-item account of concentration at 2 h
Provide only the numeric value, understood in ng/g.

# example entries with known answers
• OC(c1ccc(-c2c(/C=C/c3ccc4ccccc4n3)nc3c(N4CCOCC4)ccnn23)cc1)(C(F)(F)F)C(F)(F)F = 54
• CS(=O)(=O)NC(=O)c1ccc(-c2c(/C=C/c3ccc4ccccc4n3)nc3c(N4CCOCC4)ccnn23)cc1F = 0
• O=C(O)C1CCN(c2ccc(-c3c(/C=C/c4ccc5ccccc5n4)nc4c(N5CCOCC5)ccnn34)cc2)CC1 [Cpd 100, trifluoroacetic acid salt] = 60.7

# input Tell us which concentration at 2 h value is on record for `O=C(O)c1cccc(-c2c(/C=C/c3ccc4ccccc4n3)nc3c(N4CCOCC4)ccnn23)c1`
# output 0

# input Tell us which concentration at 2 h value is on record for `Oc1nc(-c2ccc(-c3c(C#Cc4ccc5ccccc5n4)nc4c(N5CCOCC5)ccnn34)cn2)no1`
# output 37.8

* * *

Item-by-item account of IC50
target.system: Rat recombinant PDE10a (rPDE10a) (Rattus norvegicus (Rat))
test.method.notes: In vitro assay PDE10a: rat recombinant PDE10a SPA with 3H-cAMP substrate, IC50
Type: biochemical
experimental.setup: 60 nM cAMP, read-out: rPDE10a2 IC50
Provide only the numeric value, understood in nM.

# input Tell us which IC50 value is on record for `CS(=O)(=O)NC(=O)Nc1ccc(-c2c(/C=C/c3ccc4ccccc4n3)nc3c(N4CCOCC4)ccnn23)cc1`
# output 3

# input Tell us which IC50 value is on record for `COc1cccc(/C=C/c2nc3c(N4CCOCC4)ccnn3c2-c2ccc(C(=O)O)cc2)n1`
# output 70

# input Tell us which IC50 value is on record for O=C(O)C1CCC(Nc2c(/C=C/c3ccc4ccccc4n3)nc3c(N4CCOCC4)ccnn23)CC1 (centres unmarked)
# output 15

# input Tell us which IC50 value is on record for `O=C(O)c1ccc(-c2c(/C=C/c3ccc4ccccc4n3)nc3c(N4CCOCC4)ccnn23)o1`
# output 4

# input Tell us which IC50 value is on record for `CS(=O)(=O)NC(=O)c1cccc2nc(/C=C/c3cn4nc(Cl)cc(N5CCOCC5)c4n3)ccc12`
# output 8

# input Tell us which IC50 value is on record for `O=c1[nH]c(-c2ccc(-c3c(COc4ccc5ccccc5n4)nc4c(N5CCOCC5)ccnn34)cn2)no1`
# output 7

# input Tell us which IC50 value is on record for `COc1cc(-c2c(CCc3ccc4ccccc4n3)nc3c(N4CCOCC4)ccnn23)ccc1C(=O)O`
# output 4

# input Tell us which IC50 value is on record for `Oc1ccc(-c2c(/C=C/c3ccc4ccccc4n3)nc3c(N4CCOCC4)ccnn23)cn1`
# output 6

* * *

test.method.notes: PDE10a perfused brain permeability study: plasma concentrations at 30 and 120 min, brain concentration at 120 min, brain/plasma ratio
experimental.setup: male, Sprague-Dawley, rat, brain/plasma
Where a name gives a salt, the structure may show the parent alone.
readout.name: Kp at 2 h
Enter the number alone.

# example entries with known answers
* CS(=O)(=O)NC(=O)c1ccc(-c2c(/C=C/c3ccc4ccccc4n3)nc3c(N4CCOCC4)ccnn23)cn1 [Cpd 27, trifluoroacetic acid salt] | 0.005
* CS(=O)(=O)NC(=O)c1ccc(-c2c(C#Cc3ccc4ccccc4n3)nc3c(N4CCOCC4)ccnn23)cn1 | 0.01
* CS(=O)(=O)NC(=O)c1ccc(-c2c(CCc3ccc4ccccc4n3)nc3c(N4CCOCC4)ccnn23)cc1 | 0

# input Tell us which Kp at 2 h value is on record for O=C(O)c1ccc(-c2c([C@H]3C[C@H](c4ccc5ccccc5n4)C3)nc3c(N4CCOCC4)ccnn23)cc1 [compound 164, trifluoroacetic acid salt]
# output 0

# input Tell us which Kp at 2 h value is on record for `O=C(O)c1ccc(-c2c(CCc3ccc4ccccc4n3)nc3c(N4CCOCC4)ccnn23)cc1`
# output 0

# input Tell us which Kp at 2 h value is on record for CS(=O)(=O)NC(=O)c1ccc(-c2c(CCc3ccc4ccccc4n3)nc3c(N4CCOCC4)ccnn23)cn1 [Cpd 30, trifluoroacetic acid salt]
# output 2.5

* * *

test.method.notes: PDE10a perfused brain permeability study: plasma concentrations at 30 and 120 min, brain concentration at 120 min, brain/plasma ratio
experimental.setup: male, Sprague-Dawley, rat, brain/plasma
Where a name gives a salt, the structure may show the parent alone.
readout.name: Kp at 2 h
Enter the number alone.

# example entries with known answers
* O=C(O)CCNC(=O)c1ccc(-c2c(/C=C/c3ccc4ccccc4n3)nc3c(N4CCOCC4)ccnn23)cc1 | 0
* O=C(O)CCC(=O)Nc1ccc(-c2c(/C=C/c3ccc4ccccc4n3)nc3c(N4CCOCC4)ccnn23)cc1 | 0
* CS(=O)(=O)NC(=O)c1ccc(-c2c(/C=C/c3ccc4ccccc4n3)nc3c(N4CCOCC4)ccnn23)cc1F | 0

# input Tell us which Kp at 2 h value is on record for `O=c1[nH]c(-c2ccc(-c3c(/C=C/c4ccc5ccccc5n4)nc4c(N5CCOCC5)ccnn34)cc2)no1`
# output 0

# input Tell us which Kp at 2 h value is on record for `OC(c1ccc(-c2c(/C=C/c3ccc4ccccc4n3)nc3c(N4CCOCC4)ccnn23)cc1)(C(F)(F)F)C(F)(F)F`
# output 0.16

# input Tell us which Kp at 2 h value is on record for `O=C(O)CCc1ccc(-c2c(/C=C/c3ccc4ccccc4n3)nc3c(N4CCOCC4)ccnn23)cc1`
# output 0

# input Tell us which Kp at 2 h value is on record for `O=C(O)c1cccc(-c2c(/C=C/c3ccc4ccccc4n3)nc3c(N4CCOCC4)ccnn23)c1`
# output 0

# input Tell us which Kp at 2 h value is on record for `O=C(O)CNc1ccc(-c2c(/C=C/c3ccc4ccccc4n3)nc3c(N4CCOCC4)ccnn23)cn1`
# output 0

# input Tell us which Kp at 2 h value is on record for O=C(O)CNc1ccc(-c2c(C#Cc3ccc4ccccc4n3)nc3c(N4CCOCC4)ccnn23)cn1 [Cpd 24, trifluoroacetic acid salt]
# output 0.2

* * *

Item-by-item account of IC50
target.system: Human recombinant PDE10A2 (Homo sapiens (Human), UniProt Q9Y233)
Sequence (Q9Y233 267-1055): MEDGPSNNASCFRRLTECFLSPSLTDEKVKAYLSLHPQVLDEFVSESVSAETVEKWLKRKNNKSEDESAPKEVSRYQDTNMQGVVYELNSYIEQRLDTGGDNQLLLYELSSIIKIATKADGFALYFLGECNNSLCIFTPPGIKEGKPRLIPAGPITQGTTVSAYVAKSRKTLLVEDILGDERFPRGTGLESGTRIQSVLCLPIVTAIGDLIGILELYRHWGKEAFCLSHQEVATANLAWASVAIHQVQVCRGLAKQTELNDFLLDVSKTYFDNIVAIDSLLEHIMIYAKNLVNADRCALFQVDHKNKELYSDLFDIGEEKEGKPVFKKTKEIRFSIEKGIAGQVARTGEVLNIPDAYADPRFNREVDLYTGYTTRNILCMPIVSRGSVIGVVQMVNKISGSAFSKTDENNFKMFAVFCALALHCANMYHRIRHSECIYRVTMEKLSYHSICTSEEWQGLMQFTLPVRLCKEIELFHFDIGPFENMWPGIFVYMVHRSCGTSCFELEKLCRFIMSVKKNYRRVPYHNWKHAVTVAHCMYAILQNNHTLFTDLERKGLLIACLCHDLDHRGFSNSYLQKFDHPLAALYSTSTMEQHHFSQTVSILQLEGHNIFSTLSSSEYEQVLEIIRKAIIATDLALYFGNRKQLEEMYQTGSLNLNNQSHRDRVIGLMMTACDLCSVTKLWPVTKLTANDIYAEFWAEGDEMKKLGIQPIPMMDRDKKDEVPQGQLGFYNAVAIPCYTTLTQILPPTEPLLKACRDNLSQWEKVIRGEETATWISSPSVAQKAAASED
test.method.notes: In vitro hPDE10a: human recombinant PDE10A2 scintillation proximity assay, IC50
experimental.setup: human recombinant PDE10A2, SPA, 60 nM cAMP; read-out: hPDE10a2 IC50
Provide only the numeric value, understood in nM.

# example entries with known answers
- CS(=O)(=O)NC(=O)Nc1ccc(-c2c(/C=C/c3ccc4ccccc4n3)nc3c(N4CCOCC4)ccnn23)cc1: 8
- O=C(O)c1ccc(-c2c(/C=C/c3ccc4ccccc4n3)nc3c(N4CCOCC4)ccnn23)o1: 2

# input Tell us which IC50 value is on record for `O=C(O)c1ccc(-c2c(/C=C/c3nc4ccccc4s3)nc3c(N4CCOCC4)ccnn23)cc1`
# output 19

# input Tell us which IC50 value is on record for `O=C(O)c1ccc(-c2c(C#Cc3nc4ccccc4s3)nc3c(N4CCOCC4)ccnn23)cc1`
# output 1

* * *

test.method.notes: PDE10a perfused brain permeability study: plasma concentrations at 30 and 120 min, brain concentration at 120 min, brain/plasma ratio
experimental.setup: male, Sprague-Dawley, rat, plasma
Counter-ions that a name gives are not always drawn.
readout.name: concentration at 2 h (ng/mL)
Provide only the numeric value, understood in ng/mL.

- O=C(O)CCc1ccc(-c2c(/C=C/c3ccc4ccccc4n3)nc3c(N4CCOCC4)ccnn23)cc1: 314

# input Tell us which concentration at 2 h value is on record for Oc1ncn(-c2ccc(-c3c(/C=C/c4ccc5ccccc5n4)nc4c(N5CCOCC5)ccnn34)cc2)n1 [Cpd 54, trifluoroacetic acid salt]
# output 23

# input Tell us which concentration at 2 h value is on record for `O=c1[nH]c(-c2ccc(-c3c(/C=C/c4ccc5ccccc5n4)nc4c(N5CCOCC5)ccnn34)cc2)no1`
# output 155

# input Tell us which concentration at 2 h value is on record for `O=C(O)CNc1ccc(-c2c(/C=C/c3ccc4ccccc4n3)nc3c(N4CCOCC4)ccnn23)cn1`
# output 15.7

* * *

target.system: Rat recombinant PDE10a (rPDE10a) (Rattus norvegicus (Rat), UniProt Q9QYJ6)
Sequence (Q9QYJ6 whole entry): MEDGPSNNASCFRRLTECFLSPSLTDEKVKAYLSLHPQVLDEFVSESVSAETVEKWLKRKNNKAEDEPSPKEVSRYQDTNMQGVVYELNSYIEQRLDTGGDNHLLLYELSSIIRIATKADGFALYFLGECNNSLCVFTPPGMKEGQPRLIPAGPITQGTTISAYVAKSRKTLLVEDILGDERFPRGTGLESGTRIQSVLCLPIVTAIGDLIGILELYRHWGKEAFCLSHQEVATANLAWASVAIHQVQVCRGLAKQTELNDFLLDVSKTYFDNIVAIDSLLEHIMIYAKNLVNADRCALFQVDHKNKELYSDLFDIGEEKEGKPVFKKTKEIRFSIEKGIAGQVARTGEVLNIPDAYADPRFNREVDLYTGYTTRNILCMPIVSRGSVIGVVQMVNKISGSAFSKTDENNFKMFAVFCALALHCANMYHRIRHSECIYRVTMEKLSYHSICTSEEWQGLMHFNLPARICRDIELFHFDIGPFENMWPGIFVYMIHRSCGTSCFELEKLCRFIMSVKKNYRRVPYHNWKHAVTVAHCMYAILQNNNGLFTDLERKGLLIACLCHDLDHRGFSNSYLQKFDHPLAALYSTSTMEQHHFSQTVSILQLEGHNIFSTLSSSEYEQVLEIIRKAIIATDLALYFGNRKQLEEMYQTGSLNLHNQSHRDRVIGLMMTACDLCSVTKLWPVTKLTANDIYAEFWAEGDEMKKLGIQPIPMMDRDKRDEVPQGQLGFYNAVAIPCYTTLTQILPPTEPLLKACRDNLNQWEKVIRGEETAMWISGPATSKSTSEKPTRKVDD
test.method.notes: In vitro assay PDE10a: rat recombinant PDE10a SPA with 3H-cAMP substrate, IC50
experimental.setup: 60 nM cAMP, read-out: rPDE10a2 IC50
Structures can show the parent of a compound that is named as a salt.
readout.name: pIC50
Remember the convention: pIC50 equals -log10 of concentration in molar.

# example entries with known answers
- CS(=O)(=O)NC(=O)C1CCN(c2c(/C=C/c3ccc4ccccc4n3)nc3c(N4CCOCC4)ccnn23)CC1 [compound 153]: 8.40
- CS(=O)(=O)NC(=O)c1ccc(-c2c(CCc3ccc4ccccc4n3)nc3c(N4CCOCC4)ccnn23)cn1 [Cpd 30, trifluoroacetic acid salt]: 8.70

# input Tell us which pIC50 value is on record for CCN(CC)c1ccc(-c2c(COc3ccc4ccccc4n3)nc3c(N4CCOCC4)ccnn23)cn1 [Cpd 7]
# output 6.35

# input Tell us which pIC50 value is on record for C(=C\c1nc2c(N3CCOCC3)ccnn2c1-c1ccc(-c2nnn[nH]2)cc1)/c1ccc2ccccc2n1 [compound 176]
# output 8.22
